Source listed as patent US20250221410A1.

Each entry below lists one item and its recorded Pre-emergence efficacy against POAAN value.
# Test system: POAAN: Poa annua
# protocolDetails: Pre-emergence herbicide efficacy at 1280 g/ha, POAAN
# Assay type: in vivo
# conditionSet: visual scoring after about 3 weeks vs untreated controls
Answer in %, number only, no unit symbol.

{"compound": "Fc1cccc(OCCCC(F)(F)F)c1Cc1ncc(Cl)cn1 [Example 1-60]", "resultUnits": "%", "Pre-emergence efficacy against POAAN": 90}
{"compound": "Fc1ccc(Sc2ccccc2Cc2ncc(Cl)cn2)cc1 [Example 1-99]", "resultUnits": "%", "Pre-emergence efficacy against POAAN": 100}
{"compound": "N#CC(c1ncc(F)cn1)c1ccccc1Cc1ccc(F)cc1 (centres unmarked) [Example 1-81]", "resultUnits": "%", "Pre-emergence efficacy against POAAN": 100}

Requested read-out Pre-emergence efficacy against POAAN, target or system POAAN: Poa annua, entry Cc1cccc(Cc2ncc(Cl)cn2)c1Oc1ccc(F)cc1 [Example 1-31]
100

Repeat for the following compound: Cc1cccc(Oc2ncc(Cl)cc2F)c1Cc1ncc(Cl)cn1 [Example 1-66]
100
